Assignment: determine reported INHIBITION for the given compounds.
- Tested on: Plasmodium berghei
- Assay Remarks: Screen against P. berghei liver stage (PbLuc), transformed with Luciferase, at 2uM
- Format: functional, HepG2
- Measurement Conditions: tested at 2 uM
Out of some 68,000 compounds screened, about 2,700 (4%) showed an effect of 50% or more. Many of the other results were omitted from the sample, so strong results are more common in it than they were.
Number in %, nothing else.

input: Complete the entry with INHIBITION for Cc1cc(C2CCCN(C(=O)CCc3cscn3)C2)n[nH]1 (stereo unspecified)
output: -0.13

input: Complete the entry with INHIBITION for Cc1nc(COc2ccc(CNCCn3cccn3)cc2)cs1
output: 12.01

input: Complete the entry with INHIBITION for CC(C)(C)c1n[nH]cc1CNC1CCC(C(F)(F)F)CC1 (stereo unspecified)
output: 64.92

input: Complete the entry with INHIBITION for CC(C)(C)c1n[nH]cc1CNC1CCC(O)CC1 (stereo unspecified)
output: -57.67

input: Complete the entry with INHIBITION for COc1ccc(CNC(=O)N2CCCC(Nc3ccccc3)C2)cn1 (stereo unspecified)
output: 17.48

input: Complete the entry with INHIBITION for Cc1ccc([C@@H]2CN(C(=O)c3ccsc3)C[C@H]2NC(=O)C2CC2)cc1
output: 50.57

* * *

Assignment: determine reported INHIBITION for the given compounds.
- Test system: Plasmodium berghei
- Assay Remarks: Screen against P. berghei liver stage (PbLuc), transformed with Luciferase, at 2uM
- Format: functional, HepG2
- Measurement Conditions: tested at 2 uM
The campaign covered roughly 68,000 compounds. About 2,700 (4%) showed an effect of 50% or more. The sample holds strong results, similar compounds and a random draw of the others, so the mix is not that of the screen.
Number in %, nothing else.

input: Complete the entry with INHIBITION for CC(NC(=O)Cn1cc(-c2ccccc2)cn1)C1CC1 (stereo not drawn)
output: 35.65

input: Complete the entry with INHIBITION for O=C(NCCN1CCOC1=O)c1cc(-c2ccccc2)on1
output: 9.85

input: Complete the entry with INHIBITION for O=C1CO[C@H]2CN(S(=O)(=O)c3ccccc3)C[C@H]2N1Cc1ccccc1
output: 15.98

input: Complete the entry with INHIBITION for CCc1ccc(NC(=O)N2C[C@H]3CC[C@@]4(N=C(C)N(C)C4=O)[C@H]3C2)cc1
output: 17.4

input: Complete the entry with INHIBITION for Cc1ccc2nc(C3CCCN3Cc3scnc3C)[nH]c2c1 (stereo not drawn)
output: 47.23

input: Complete the entry with INHIBITION for c1ccc(-c2nnn3c2COC(CNCC2CCOCC2)C3)cc1 (stereo not drawn)
output: 12.36

input: Complete the entry with INHIBITION for CCN(Cc1cccc(C)c1)Cn1nc(C)c2c(C)onc2c1=O
output: -1.02

input: Complete the entry with INHIBITION for Cc1ccc(-c2cnn(CC(=O)NC(C)C)c2)cc1
output: 72.31

input: Complete the entry with INHIBITION for CCc1cc(NC(=O)C(c2cccc(F)c2)N2CCOCC2)[nH]n1 (stereo not drawn)
output: 35.36

input: Complete the entry with INHIBITION for CS(=O)(=O)NCc1cc(-c2cc(F)cc(F)c2)nc(N2CC[C@H](O)C2)n1
output: 4.66

input: Complete the entry with INHIBITION for CNc1[nH]nc(N)c1C(=O)Nc1ccccc1
output: 0.86

input: Complete the entry with INHIBITION for COC(=O)CN1CCC(C(=O)c2cc(F)ccc2F)CC1
output: 35.23

input: Complete the entry with INHIBITION for CCS(=O)(=O)N(C)c1ccc(C(=O)N2CCCC(C)C2)cc1 (stereo not drawn)
output: 62.77

input: Complete the entry with INHIBITION for CCCn1cnnc1CN(C)C(=O)C1CCC(=O)N(C2CCCC2)C1 (stereo not drawn)
output: 31.35

input: Complete the entry with INHIBITION for CCN(Cc1nnsc1Cl)C(C)c1ccc(C#N)cc1 (stereo not drawn)
output: 56.49

input: Complete the entry with INHIBITION for O=C(NCCN1CCCC(CO)C1)c1ccc2sccc2c1 (stereo not drawn)
output: 13.99

input: Complete the entry with INHIBITION for CCN(CCn1cccn1)Cc1nc(-c2ccoc2)oc1C
output: -16.71

input: Complete the entry with INHIBITION for CN1CCN(C[C@@H]2CN(C(=O)NCC3CCCCC3)C[C@@H]2CO)CC1
output: -26.04

input: Complete the entry with INHIBITION for CCc1ccc(O)c(C(=O)N2CCN(CC(=O)N(C)C)CC2)c1
output: 55.26

input: Complete the entry with INHIBITION for CCn1cc(CN2C[C@@H]3CCCN3C[C@H]2CCSC)cn1
output: -25.95

input: Complete the entry with INHIBITION for C1CCN(CCN2CCCCC2C2OCCO2)CC1 (stereo not drawn)
output: -26.04

input: Complete the entry with INHIBITION for c1cc(-c2nnn3c2COC(CNCC2CCOCC2)C3)ccn1 (stereo not drawn)
output: 86.79

input: Complete the entry with INHIBITION for COCc1nc(C(=O)N2CCCC2c2c(C)nn(C)c2C)cs1 (stereo not drawn)
output: 5.1

input: Complete the entry with INHIBITION for CC(C)NC(=O)N1CCN(CC2CC2)CC2(CNC(=O)C2)C1 (stereo not drawn)
output: 13.38

input: Complete the entry with INHIBITION for c1ccc(-c2nnn3c2COC(CNCC2CC2)C3)cc1 (stereo not drawn)
output: 14.48

input: Complete the entry with INHIBITION for CC(C)c1nccn1C(C)C(=O)NC1CCN(S(C)(=O)=O)CC1 (stereo not drawn)
output: 8.13

input: Complete the entry with INHIBITION for O=C1CO[C@H]2CN(S(=O)(=O)c3ccccc3)C[C@H]2N1c1ccccc1
output: 53.27

input: Complete the entry with INHIBITION for O=C1[C@H]2CN(CC3CC3)C[C@H]2CN1Cc1cccc(F)c1
output: 26.52

input: Complete the entry with INHIBITION for CC(C)c1nccn1C(C)C(=O)NC1CCOCC1 (stereo not drawn)
output: 1.1

input: Complete the entry with INHIBITION for CCNc1cc2c(nn1)CCN(C(=O)c1cccc3c1OCO3)C2
output: 1.63

input: Complete the entry with INHIBITION for CN1CCC2(CC1)CN(C(=O)c1cccnc1)Cc1ccccc12
output: -19.51

input: Complete the entry with INHIBITION for CCC(O)CN1CCN(C(=O)c2cccc3c2OCC(=O)N3)CC1 (stereo not drawn)
output: -29.24

input: Complete the entry with INHIBITION for CCc1ccc(O)c(C(=O)N2CCCN(CC(=O)N(CC)CC)CC2)c1
output: 46.3

input: Complete the entry with INHIBITION for COCc1ncn2c1CN(C(=O)c1cccc3cccnc13)CC2
output: 29.3

input: Complete the entry with INHIBITION for CN(C)C(=O)CN1C[C@H]2CN(Cc3cccc(F)c3)C(=O)[C@H]2C1
output: 53.98

input: Complete the entry with INHIBITION for CCN(CCn1cccn1)Cc1nc(-c2ccc(F)cc2)oc1C
output: -11.66

input: Complete the entry with INHIBITION for Fc1cccc(Nc2nc(N3CCCC3)nc3c2CNCC3)c1
output: 32.67

input: Complete the entry with INHIBITION for CNc1[nH]nc(N)c1C(=O)Nc1ccc(OC)cc1
output: 52.21
